Recorded Relative activity (%), EC50 COM701/EC50 antibody by entry
Molecular target: T1, human CD112R on Jurkat CD112R effector cells (human, UniProt Q6DKI7 1-326)
T1 sequence (looked up): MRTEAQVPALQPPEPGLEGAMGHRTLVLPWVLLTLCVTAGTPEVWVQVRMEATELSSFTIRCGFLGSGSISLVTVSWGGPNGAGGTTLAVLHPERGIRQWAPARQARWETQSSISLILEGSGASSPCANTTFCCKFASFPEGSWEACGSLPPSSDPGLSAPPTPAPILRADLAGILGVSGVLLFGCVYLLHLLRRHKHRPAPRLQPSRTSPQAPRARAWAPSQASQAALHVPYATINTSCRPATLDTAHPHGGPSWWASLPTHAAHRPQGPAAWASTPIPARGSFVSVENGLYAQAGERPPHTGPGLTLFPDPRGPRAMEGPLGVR
Assay: cell-based or functional assay
Answer in %, number only, no unit symbol.

BINDER	UNIT_SYMBOL	ASSAY_VALUE
Hu58 (antibody, IgG4, V domains shown, humanized IgG4) VH: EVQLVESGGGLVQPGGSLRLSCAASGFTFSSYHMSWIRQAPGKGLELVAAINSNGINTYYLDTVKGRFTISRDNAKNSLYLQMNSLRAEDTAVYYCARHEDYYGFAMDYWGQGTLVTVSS VL: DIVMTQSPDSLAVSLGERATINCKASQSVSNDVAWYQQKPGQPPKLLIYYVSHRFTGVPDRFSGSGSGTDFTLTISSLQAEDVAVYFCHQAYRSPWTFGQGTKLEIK	%	277

// fetch Relative activity (%), EC50 COM701/EC50 antibody given entry Hu37 (antibody, IgG4, V domains shown) VH: EVQLVESGGGLVQPGGSLRLSCAASGFTFSSYHMSWVRQAPGKGLELVSAINSNVISTYYLDTVKGRFTISRDNAKNSLYLQMNSLRAEDTAVYYCARHEDYYGFAMDYWGQGTLVTVSS VL: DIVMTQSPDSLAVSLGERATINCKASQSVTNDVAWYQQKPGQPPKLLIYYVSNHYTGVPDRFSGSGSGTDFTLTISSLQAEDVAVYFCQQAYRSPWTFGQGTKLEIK
182

// fetch Relative activity (%), EC50 COM701/EC50 antibody given entry Hu10 (antibody, IgG4, V domains shown, humanized IgG4) VH: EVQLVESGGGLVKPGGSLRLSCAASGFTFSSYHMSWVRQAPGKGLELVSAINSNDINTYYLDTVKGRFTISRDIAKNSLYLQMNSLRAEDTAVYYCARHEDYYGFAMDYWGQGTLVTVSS VL: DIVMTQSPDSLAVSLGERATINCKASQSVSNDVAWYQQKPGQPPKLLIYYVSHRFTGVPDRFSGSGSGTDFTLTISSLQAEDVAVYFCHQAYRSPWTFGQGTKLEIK
199

// fetch Relative activity (%), EC50 COM701/EC50 antibody given entry Hu21 (antibody, IgG4, V domains shown, humanized IgG4) VH: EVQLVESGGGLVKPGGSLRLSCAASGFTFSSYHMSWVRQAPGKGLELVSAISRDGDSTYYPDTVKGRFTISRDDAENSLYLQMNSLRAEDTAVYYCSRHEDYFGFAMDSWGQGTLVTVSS VL: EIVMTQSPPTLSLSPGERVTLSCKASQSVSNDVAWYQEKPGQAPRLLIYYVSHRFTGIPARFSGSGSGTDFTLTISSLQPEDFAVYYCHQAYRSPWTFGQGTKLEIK
179

// fetch Relative activity (%), EC50 COM701/EC50 antibody given entry Hu7 (antibody, IgG4, V domains shown, humanized IgG4; also called Hu-07) VH: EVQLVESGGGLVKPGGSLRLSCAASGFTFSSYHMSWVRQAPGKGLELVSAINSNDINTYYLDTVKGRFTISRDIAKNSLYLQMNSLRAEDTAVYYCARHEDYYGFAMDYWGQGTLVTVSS VL: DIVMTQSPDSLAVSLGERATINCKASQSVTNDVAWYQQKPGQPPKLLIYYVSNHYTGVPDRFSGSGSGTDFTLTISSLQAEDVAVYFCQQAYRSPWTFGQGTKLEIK
48.6

Origin of values: patent US20240309087A1
